Overview of recorded ELISA score for various binders
Biological target: T1, human neonatal Fc receptor (hFcRn) (human, UniProt P55899 24-290; P61769 21-119)
T1 construct: Biotinylated in the ELISA, Octet and yeast assays; also called human FcRn; huFcRn
T1 sequence (P55899 24-290 limits assumed, chain 1 of 2): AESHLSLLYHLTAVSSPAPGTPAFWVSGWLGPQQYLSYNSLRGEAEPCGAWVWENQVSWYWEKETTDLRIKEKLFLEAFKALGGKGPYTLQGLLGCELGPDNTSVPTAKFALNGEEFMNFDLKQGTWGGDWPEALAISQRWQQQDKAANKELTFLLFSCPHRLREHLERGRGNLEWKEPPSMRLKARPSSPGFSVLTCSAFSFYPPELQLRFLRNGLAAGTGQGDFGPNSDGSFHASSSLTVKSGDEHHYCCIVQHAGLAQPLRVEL
T1 sequence (P61769 21-119 limits assumed, chain 2 of 2): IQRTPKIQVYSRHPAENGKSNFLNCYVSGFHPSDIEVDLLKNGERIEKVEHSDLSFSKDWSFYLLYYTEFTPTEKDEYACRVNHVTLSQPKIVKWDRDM
Experiment: phage ELISA pH 6;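 further: higher score means stronger binding and above about 3 to 5 exceeds background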
# respond with the number and nothing more

Return value of ELISA score for input L5 isolate with insertion SEQ ID NO: 484 (other) EPKSCDKTHTCPPCPAPELLGGPSVFLFPPKPKDTLMISRTPEVTCVVVDVSHEDPEVKFNWYVDGVEVHNAKTKPREEQYNSTYRVVSVLTVLHQDWLNGKEYKCKVSNKALPAPIEKTISKAKGQPREPQVYTLPPSRDELTKNQVSLTCLVKGFYPSDIAVEWESNGGCYASPHECGGGQPENNYKTTPPVLDSDGSFFLYSKLTVDKSRWQQGNVFSCSVMHEALHNHYTQKSLSLSPGK , no commentary.
27.7

Return value of ELISA score for input L6A isolate with insertion SEQ ID NO: 474 (other) EPKSCDKTHTCPPCPAPELLGGPSVFLFPPKPKDTLMISRTPEVTCVVVDVSHEDPEVKFNWYVDGVEVHNAKTKPREEQYNSTYRVVSVLTVLHQDWLNGKEYKCKVSNKALPAPIEKTISKAKGQPREPQVYTLPPSRDELGGCAKDQHTGSCGGTKNQVSLTCLVKGFYPSDIAVEWESNGQPENNYKTTPPVLDSDGSFFLYSKLTVDKSRWQQGNVFSCSVMHEALHNHYTQKSLSLSPGK , no commentary.
41.2

Return value of ELISA score for input L5 isolate with insertion SEQ ID NO: 450 (other) EPKSCDKTHTCPPCPAPELLGGPSVFLFPPKPKDTLMISRTPEVTCVVVDVSHEDPEVKFNWYVDGVEVHNAKTKPREEQYNSTYRVVSVLTVLHQDWLNGKEYKCKVSNKALPAPIEKTISKAKGQPREPQVYTLPPSRDELTKNQVSLTCLVKGFYPSDIAVEWESNGGCQTSMKNCGGGQPENNYKTTPPVLDSDGSFFLYSKLTVDKSRWQQGNVFSCSVMHEALHNHYTQKSLSLSPGK , no commentary.
51.3

Return value of ELISA score for input L5 isolate with insertion SEQ ID NO: 399 (other) EPKSCDKTHTCPPCPAPELLGGPSVFLFPPKPKDTLMISRTPEVTCVVVDVSHEDPEVKFNWYVDGVEVHNAKTKPREEQYNSTYRVVSVLTVLHQDWLNGKEYKCKVSNKALPAPIEKTISKAKGQPREPQVYTLPPSRDELTKNQVSLTCLVKGFYPSDIAVEWESNGGCYENKTLCGGGQPENNYKTTPPVLDSDGSFFLYSKLTVDKSRWQQGNVFSCSVMHEALHNHYTQKSLSLSPGK , no commentary.
86.3

Return value of ELISA score for input L5 isolate with insertion SEQ ID NO: 439 (other) EPKSCDKTHTCPPCPAPELLGGPSVFLFPPKPKDTLMISRTPEVTCVVVDVSHEDPEVKFNWYVDGVEVHNAKTKPREEQYNSTYRVVSVLTVLHQDWLNGKEYKCKVSNKALPAPIEKTISKAKGQPREPQVYTLPPSRDELTKNQVSLTCLVKGFYPSDIAVEWESNGGCHHKQDQCGGGQPENNYKTTPPVLDSDGSFFLYSKLTVDKSRWQQGNVFSCSVMHEALHNHYTQKSLSLSPGK , no commentary.
54.9
